# test_system: human PPARγ (hPPARγ) (Homo sapiens)
# Sequence (P37231 238-503 limits assumed): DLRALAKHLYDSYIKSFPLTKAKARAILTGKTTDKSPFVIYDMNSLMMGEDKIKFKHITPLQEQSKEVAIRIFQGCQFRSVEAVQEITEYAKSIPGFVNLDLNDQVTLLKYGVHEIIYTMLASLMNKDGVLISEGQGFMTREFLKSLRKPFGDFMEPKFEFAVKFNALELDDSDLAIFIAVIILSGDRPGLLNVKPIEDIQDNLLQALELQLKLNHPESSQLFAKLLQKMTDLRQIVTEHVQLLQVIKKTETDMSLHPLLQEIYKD
# protocol_details: Transactivation reporter assay (chimeric GAL4-PPAR reporter-gene assay in CV-1 cells)
# reported_conditions: CV-1 cells, 48 h, luciferase, triplicate
measured_quantity: EC50

[in] Fill in the blank: the reported EC50 of `CC1=NN(CN2CCOCC2)C(=O)/C1=N\Nc1ccc(C(=O)O)cc1` is ____.
[out] 84 nM

[in] Fill in the blank: the reported EC50 of `O=C(N/N=C/c1ccc(-c2ccc([N+](=O)[O-])cc2)o1)c1ccccc1` is ____.
[out] 350 nM
